assayTarget: T1, human Mu Opioid Receptor (MOR) (human, UniProt P35372 1-400)
T1 construct: whole, on cells; also called MOR-CHO(PE)
T1 sequence (P35372 whole entry): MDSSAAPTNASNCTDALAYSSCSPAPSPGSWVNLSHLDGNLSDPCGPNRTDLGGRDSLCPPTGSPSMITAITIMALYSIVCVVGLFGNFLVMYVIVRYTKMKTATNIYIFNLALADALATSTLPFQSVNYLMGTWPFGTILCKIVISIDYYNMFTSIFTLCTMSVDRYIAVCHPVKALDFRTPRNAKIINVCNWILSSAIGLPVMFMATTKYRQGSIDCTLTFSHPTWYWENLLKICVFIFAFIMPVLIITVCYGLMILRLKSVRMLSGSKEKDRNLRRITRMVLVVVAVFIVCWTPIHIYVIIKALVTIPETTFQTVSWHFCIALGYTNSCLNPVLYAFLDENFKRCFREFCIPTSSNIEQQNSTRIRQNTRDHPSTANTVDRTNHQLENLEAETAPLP
method: competition binding against [3H]diprenorphine on MOR-CHO(PE) membranes
pKi: −log10 of the molar value. Bridges are numbered along the chain shown (N, C = ends). Where no end group is shown, it is not given here. [ ]: non-standard residue; d: D form. glucose = glucose (covalently linked to the residue side chain); Dap = NC[C@H](N)C(=O)O
// pKi lookup, one value per entry

Some solved entries appear below for comparison.
{"columns": ["binder", "recordedMeasurement"],
 "data": [
  ["DYIQN[Dap]PLGS(lactose)-NH2 (lactam 1-6, Synthetic cyclic glycopeptide: Asp-Tyr-Ile-Gln-Asn-Dap-Pro-Leu-Gly-SerLact-CONH2, cyclized AA1-AA6) [SSoxy2]", "< 5.60"],
  ["DYIQN[Dap]PLGS(glucose)S(glucose)-NH2 (lactam 1-6, Synthetic cyclic glycopeptide: Asp-Tyr-Ile-Gln-Asn-Dap-Pro-Leu-Gly-(SerGlc)2-CONH2, cyclized AA1-AA6) [2LS118-6]", "< 5.60"]
]}

Please find the next binder below.
Please give the measured pKi for this binder: DYIQN[Dap]PLGS(glucose)-NH2 (lactam 1-6, Synthetic cyclic glycopeptide: Asp-Tyr-Ile-Gln-Asn-Dap-Pro-Leu-Gly-SerGlc-CONH2, cyclized AA1-AA6) [2LS118-5]
< 5.60
